We begin with a simple list: items and their reported fold-change in binding over parental HEK293 cells.
# Assayed Target: T1, mouse TMEM106B (mouse, UniProt Q80X71 2-275)
# T1 construct: Full-length cDNA transiently transfected into HEK293 cells; also called muTMEM106B; murine TMEM106B
# Assay Method Text: flow cytometry, HEK293 cells transiently transfected with murine TMEM106B
Kindly provide the numeric value in fold only, without the unit symbol.

Solved cases below.
1) TM-73 (antibody, V domains shown, Purified from mouse hybridoma) VH: QVQLQQPGAELVKPGASVKLSCKASGYTFTSHWMHWVKHRPGQGLEWIGEIDPSDSYTYYNQKFKGKATLTVDKSSSTVYMQLSSLTSEDSAVYYCARNYHGSGPPFAHWGQGTLVTVSS VL: QIVLTQSPAIMSASPGEKVTLTCSASSGISYIYWYQQRPGSSPRLLIYDTSNLASGVPVRFSGSGSETSYSLTISRLEAEDAATYYCHQWRSYPPTFGGGTKLEIR; 0.59
2) TM-72 (antibody, V domains shown, Purified from mouse hybridoma) VH: QVQLQQPGAELVKPGTSVKLSCKASGSTFTNYWMHWVMQRPGQGLEWIGNIDPSDSDTHYNQKFKDRAKLTVDKSSSTAYMQLSGLTSEDSAVYYCARSRGGYYDYGEAMDYWGQGTSVTVSS VL: DIVMTQAAPSVPVTPGESVSISCRSSKSLLHTNGNTYLFWFIQRPGQSPHLLIYRKSNLASGVPDRFSGSGSGTAFTLRISRVEAEDVGVYYCMQHLEYPFTFGSGTKLEIK; 0.23

// moving on: another record for fold-change in binding over parental HEK293 cells
Entry TM-80 (antibody, V domains shown, Purified from mouse hybridoma) VH: QVQLQQPGAELVKPGASVKLSCKASGYTFTTFWMHWVKQRPGQGLEWIGNIDPSDSETHYNQEFKDKATLTVDRSSNTAYMQLSSLTSEDSAVYYCARSSNWDNFDYWGQGTAVTVSS VL: DIVMTQAAPSVPVTPGESVSISCRSSQSLLHVNGHTYLYWFLQRPGQSPQLLIYRMSNLASGVPDRFSGSGSGTVFTLRISRVETEDVGIYYCMQHLQYPFTFGSGTKLEIK ; fold-change in binding over parental HEK293 cells = 0.39
